Recorded values, source ChEMBL document CHEMBL1255505.

- procedure text: Selectivity index ratio of IC50 for MAOB to IC50 for MAOA
// reported Ratio IC50 for each item listed

input: Name the reported Ratio IC50 value associated with the compound C/C(=N\Nc1nc2ccccc2nc1Cc1ccccc1)c1ccc(N)cc1
output: 87700

input: Now the same for COc1ccc(-c2nnc3c(C(=O)c4ccccc4)nc4ccccc4n23)cc1OC
output: 12600

input: Now the same for COc1cc(/C(C)=N/Nc2nc3ccccc3nc2Cc2ccccc2)cc(OC)c1OC
output: 8960

input: Now the same for COc1ccccc1/C=N/Nc1nc2ccccc2nc1Cc1ccccc1
output: 9510

input: Now the same for Clc1ccc(/C=N/Nc2nc3ccccc3nc2Cc2ccccc2)cc1
output: 1100

input: Now the same for O=C(c1ccccc1)c1nc2ccccc2n2c(-c3ccccc3)nnc12
output: 88800

input: Now the same for C/C(=N\Nc1nc2ccccc2nc1Cc1ccccc1)c1ccc(O)cc1
output: 3e+06

input: Now the same for c1ccc(Cc2nc3ccccc3n3c(-c4ccccc4)nnc23)cc1
output: 12000

input: Now the same for CN(C)c1ccc(/C=N/Nc2nc3ccccc3nc2Cc2ccccc2)cc1
output: 10600
